A collection of molecules and their measured Inhibition %
target: VEGFR-2 (Homo sapiens); test: In vitro VEGFR-2 inhibitory assay (ELISA kit); conditions: VEGFR-2 kinase, HepG2

{"columns": ["chemical-string", "Inhibition %"],
 "data": [
  ["O=C(Cn1cnc2cc(Cl)ccc2c1=O)Nc1ccccc1Cl", "88.327%"],
  ["O=C(Cn1cnc2cc([N+](=O)[O-])ccc2c1=O)Nc1ccccc1", "85.240%"],
  ["O=C(Cn1cnc2cc(Cl)ccc2c1=O)Nc1ccccc1", "74.864%"],
  ["O=C(Cn1cnc2cc([N+](=O)[O-])ccc2c1=O)Nc1ccccc1Cl", "66.436%"]
]}

###

tested on: K-562; experiment: MTT anti-proliferative assay, K-562; type: cell-based, human; conditions: Homo sapiens, K562; K-562, 0.195 umol; read-out: Toxicity %

{"columns": ["chemical-string", "cytotoxicity at 0.195 µmol [%]"],
 "data": [
  ["O=C(Cn1cnc2cc(Cl)ccc2c1=O)Nc1ccccc1Cl", 17.3],
  ["O=C(Cn1cnc2cc(Cl)ccc2c1=O)Nc1ccc(F)c(Cl)c1", 47.2],
  ["O=C(Cn1cnc2cc(Cl)ccc2c1=O)Nc1ccccc1", 53.4],
  ["O=C(Cn1cnc2cc(Cl)ccc2c1=O)Nc1ccc(Cl)cc1", 19.2],
  ["O=C(Cn1cnc2cc([N+](=O)[O-])ccc2c1=O)Nc1ccccc1Cl", 52.5],
  ["O=C(Cn1cnc2cc([N+](=O)[O-])ccc2c1=O)Nc1ccccc1", 33.4],
  ["O=C(Cn1cnc2cc([N+](=O)[O-])ccc2c1=O)Nc1ccc(Cl)cc1", 19.4],
  ["O=C(Cn1cnc2cc([N+](=O)[O-])ccc2c1=O)Nc1ccc(F)c(Cl)c1", 39.4]
]}

###

target: VEGFR-2 (Homo sapiens, UniProt P35968); experiment: In vitro VEGFR-2 inhibitory assay (ELISA kit); settings: VEGFR-2 kinase, HepG2
Sequence (P35968 20-1356): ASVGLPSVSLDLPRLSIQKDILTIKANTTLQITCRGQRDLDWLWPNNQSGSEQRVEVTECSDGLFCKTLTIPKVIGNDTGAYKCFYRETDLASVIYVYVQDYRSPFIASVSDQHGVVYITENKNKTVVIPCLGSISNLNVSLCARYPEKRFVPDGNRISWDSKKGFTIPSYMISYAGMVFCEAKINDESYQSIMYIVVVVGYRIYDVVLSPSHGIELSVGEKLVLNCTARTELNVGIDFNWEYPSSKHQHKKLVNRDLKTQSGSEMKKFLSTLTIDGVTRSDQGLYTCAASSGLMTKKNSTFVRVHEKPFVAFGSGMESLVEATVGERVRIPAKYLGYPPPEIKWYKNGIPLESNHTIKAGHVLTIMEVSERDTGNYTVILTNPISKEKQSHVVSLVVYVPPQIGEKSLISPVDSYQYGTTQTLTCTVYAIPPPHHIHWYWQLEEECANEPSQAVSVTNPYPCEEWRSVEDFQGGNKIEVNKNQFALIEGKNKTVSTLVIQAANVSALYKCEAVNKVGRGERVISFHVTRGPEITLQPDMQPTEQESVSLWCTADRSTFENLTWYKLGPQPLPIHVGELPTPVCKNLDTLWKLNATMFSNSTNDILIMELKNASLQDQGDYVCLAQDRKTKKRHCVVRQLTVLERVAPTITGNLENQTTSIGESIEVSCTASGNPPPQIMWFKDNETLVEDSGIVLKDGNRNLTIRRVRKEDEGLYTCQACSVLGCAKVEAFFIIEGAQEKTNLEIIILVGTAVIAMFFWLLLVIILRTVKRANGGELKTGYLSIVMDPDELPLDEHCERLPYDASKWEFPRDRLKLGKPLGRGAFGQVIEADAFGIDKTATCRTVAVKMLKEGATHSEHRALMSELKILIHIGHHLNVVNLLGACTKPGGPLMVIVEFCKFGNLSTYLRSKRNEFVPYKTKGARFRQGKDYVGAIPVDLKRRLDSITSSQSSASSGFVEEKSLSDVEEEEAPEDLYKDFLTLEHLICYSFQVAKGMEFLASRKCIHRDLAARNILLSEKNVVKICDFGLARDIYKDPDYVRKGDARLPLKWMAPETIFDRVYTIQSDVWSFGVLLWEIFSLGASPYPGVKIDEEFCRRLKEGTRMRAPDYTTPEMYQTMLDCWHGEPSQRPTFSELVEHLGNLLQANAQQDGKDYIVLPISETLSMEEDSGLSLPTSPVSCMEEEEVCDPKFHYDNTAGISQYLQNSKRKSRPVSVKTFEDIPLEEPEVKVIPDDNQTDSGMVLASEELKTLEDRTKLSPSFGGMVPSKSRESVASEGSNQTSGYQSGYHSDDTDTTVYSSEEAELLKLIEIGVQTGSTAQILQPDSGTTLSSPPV
Catalogue of Activity % readings, one per entry.
assay-metric: Activity %

{"columns": ["compound", "recorded-measurement"],
 "data": [
  ["O=C(Cn1cnc2cc(Cl)ccc2c1=O)Nc1ccccc1Cl [8b]", "11.673%"],
  ["O=C(Cn1cnc2cc(Cl)ccc2c1=O)Nc1ccccc1 [8a]", "25.136%"],
  ["O=C(Cn1cnc2cc([N+](=O)[O-])ccc2c1=O)Nc1ccccc1Cl [9b]", "33.564%"],
  ["O=C(Cn1cnc2cc([N+](=O)[O-])ccc2c1=O)Nc1ccccc1 [9a]", "14.760%"]
]}

###

system: HepG-2; assay: MTT anti-proliferative assay, HepG-2; format: cell-based, human; conditions: Homo sapiens, HepG2; HepG-2, 0.391 ug/ml; read-out: Toxicity %
Rule for this label: y means cytotoxicity at 0.391 µg/mL is less than 40%; n means cytotoxicity at 0.391 µg/mL is at least 40%.

{"columns": ["chemical-string", "system", "label-value"],
 "data": [
  ["O=C(Cn1cnc2cc([N+](=O)[O-])ccc2c1=O)Nc1ccccc1Cl", "HepG-2", "n"],
  ["O=C(Cn1cnc2cc(Cl)ccc2c1=O)Nc1ccccc1", "HepG-2", "n"],
  ["O=C(Cn1cnc2cc(Cl)ccc2c1=O)Nc1ccccc1Cl", "HepG-2", "n"],
  ["O=C(Cn1cnc2cc([N+](=O)[O-])ccc2c1=O)Nc1ccccc1", "HepG-2", "n"],
  ["O=C(Cn1cnc2cc([N+](=O)[O-])ccc2c1=O)Nc1ccc(Cl)cc1", "HepG-2", "y"],
  ["O=C(Cn1cnc2cc([N+](=O)[O-])ccc2c1=O)Nc1ccc(F)c(Cl)c1", "HepG-2", "y"],
  ["O=C(Cn1cnc2cc(Cl)ccc2c1=O)Nc1ccc(Cl)cc1", "HepG-2", "y"],
  ["O=C(Cn1cnc2cc(Cl)ccc2c1=O)Nc1ccc(F)c(Cl)c1", "HepG-2", "y"]
]}
